assay: Neurotoxicity in human SH-SY5Y cells assessed as reduction in cell viability at 100 uM measured after 48 hrs by MTT reduction assay (Rvb= 100 +/- 2.79%); type: cell-based; conditions: read-out: Activity
Recorded endpoint: viability at 48 h, 100 µM (%)
Note: unit % is implicit; provide only the numeric part.

{"Smiles str": "NCCc1cc(O)c(O)cc1O", "viability at 48 h, 100 µM / %": 48.6}

# context switch: different compound, same viability at 48 h, 100 µM
Qu. Which viability at 48 h, 100 µM value is on record for NCCc1ccc(O)c(O)c1 ?
Ans. 96.9
